Cited source for all entries: ChEMBL document CHEMBL1201862

- Test system: SNB-19
- protocol: NCI tumour cell line growth inhibition, 48 h
The source made the active and inactive calls. Rule as the data show it: active = GI50 up to about 1.1 µM and inactive = higher.
Known GI50 of a selection of molecules

The cases that follow already have their GI50 on record.
| molecule | GI50 |
| --- | --- |
| Clc1ccc(-c2nnc(C34CC5CC(CC(C5)C3)C4)o2)cc1 | > 100 µM (inactive) |
| O=C1CCC(c2ccccc2)C(O)(C(=O)O)C1 (stereo not drawn) | > 100 µM (inactive) |
| CCC/N=C1\S/C(=C/c2ccc(OC)c(OC)c2)C(=O)N1c1ccccc1 | 17.8 µM (inactive) |
| COC1C(N(C)C)=C(c2ccccc2)C(=O)N2CCc3ccccc3C12 (stereo not drawn) | > 100 µM (inactive) |
| CNC(=O)CNC(=O)CCC(=O)N(C)C | > 100 µM (inactive) |

Which GI50 is reported for this molecule? COc1cccc2c1C(=O)c1c(O)c3c(c(O)c1C2=O)CC(O)(C(C)=O)CC3OC1OC(COC(C)=O)C(OC(C)=O)C(OC(C)=O)C1OC(C)=O (stereo not drawn)
16 µM (inactive)

Which GI50 is reported for this molecule? C/C(=N\Nc1nc2ccccc2[nH]1)c1cnccn1
2.72 µM (inactive)

###

- Test system: MCF7
- protocol: NCI tumour cell line growth inhibition, 48 h
Activity calls are given as the source filed them. Cut-off read from the data, not from the text of the source: active = GI50 up to about 1.1 µM and inactive = higher.
measured.property: GI50

| compound | GI50 |
| --- | --- |
| CC1=CC(=O)/C(=C(/C)NCCN(CCN/C(C)=C2\C(=O)C=C(C)OC2=O)CCN/C(C)=C2\C(=O)C=C(C)OC2=O)C(=O)O1 | > 100 µM (inactive) |
| OC1CN2Cc3cc4c(cc3[C@]13C=C[C@@H](O)CC23)OCO4 (stereo partly specified) | 16.4 µM (inactive) |
| Cc1cc(C)c(C)c(-n2[nH]c(=O)n(C)c2=O)c1C | > 100 µM (inactive) |
| C=C1C[C@@H](O)[C@@H](Br)C(C)(C)[C@]12CCC(C)(Cl)C(Br)C2 (stereo partly specified) | 25.1 µM (inactive) |
| COC1(OC)N=C(N)C2(C#N)/C(=N/N(C)C)CC(C)C12C#N (stereo unspecified) | > 100 µM (inactive) |
| COc1ccc(/C=C2\CN(C)CC3C2=NN(c2ccccc2)C3c2ccc(OC)cc2)cc1 (stereo unspecified) | > 100 µM (inactive) |

# get_value(readout= GI50, system= MCF7) for CC(=O)[C@]1(C)[C@H](C)O[C@](C)(CO)[C@H]1O[Si](C)(C)c1ccccc1
31.8 µM (inactive)

# get_value(readout= GI50, system= MCF7) for Cc1cc(O)c2cc3c(O)c(O)ccc3cc2c1
2.27 µM (inactive)

# get_value(readout= GI50, system= MCF7) for c1ccc(/N=C2\SC(c3ccccc3)CN2C23CC4CC(CC(C4)C2)C3)cc1 (stereo unspecified)
> 100 µM (inactive)

# get_value(readout= GI50, system= MCF7) for O=[N+]([O-])/C(C(Cl)=C(Cl)Cl)=C(\N1CCCCC1)n1nnc2ccccc21
25.4 µM (inactive)

# get_value(readout= GI50, system= MCF7) for COc1cc(C2c3cc4c(cc3OC(NN)C2C)OCO4)cc(OC)c1O (stereo unspecified)
8.09 µM (inactive)

###

- System: DMS-114
- protocol: NCI tumour cell line growth inhibition, 48 h
Calls of active or inactive are those of the source. Rule as the data show it: active = GI50 up to about 1.1 µM and inactive = higher.
Returns: one label drawn from 1 for active, 0 for inactive

Solved entries:
| molecule | group |
| --- | --- |
| C=C(COC(C)=O)CC(OC(C)=O)c1ccccc1 (configuration not stated) | 0 |
| Cn1ccnc1CCc1ccc(Cl)c(Cl)c1 | 0 |

Which result was noted for this molecule in the test: COc1ccc(/C=c2/sc3n(c2=O)NC2(CCC(C)CC2)NN=3)cc1 (configuration not stated)
0

Which result was noted for this molecule in the test: Cc1ccc(S(=O)(=O)c2ccc(C)cc2[N+](=O)[O-])c([N+](=O)[O-])c1
0

Which result was noted for this molecule in the test: O=c1c2cccnc2ncn1CCCN1CCCC1
0

Which result was noted for this molecule in the test: O=c1ccc2nc3cc(Br)ccc3sc-2c1
0

Which result was noted for this molecule in the test: O=C(COC(=O)c1cccc2c(=O)c3ccccc3[nH]c12)Nc1ccc(S(=O)(=O)Nc2ncccn2)cc1
0

Which result was noted for this molecule in the test: O=C(Nc1cccc(Cc2cccc(NC(=O)c3ccccc3)c2)c1)c1ccccc1
0

Which result was noted for this molecule in the test: Cc1ccc(-c2cc(-c3ccco3)c(C#N)c(=O)n2C2OC(OC(=O)c3ccccc3)C(OC(=O)c3ccccc3)C2OC(=O)c2ccccc2)cc1 (configuration not stated)
0

Which result was noted for this molecule in the test: CC1(C)CC(N2CCN(C3CC(C)(C)NC(C)(C)C3)CC2)CC(C)(C)N1
0

Which result was noted for this molecule in the test: COc1cccc2c1C(=O)c1c(O)c3c(c(O)c1C2=O)C[C@@](O)(C(C)=O)C[C@@H]3OC1CC(N(C)C)C(O)C(C)O1 (some centres not stated)
1

Which result was noted for this molecule in the test: CC(C)(C)N1CC1CNC(=O)C(=O)NCC1CN1C(C)(C)C (configuration not stated)
1

Which result was noted for this molecule in the test: [O-][S+]1CSSC1
0

###

- System: RPMI-8226
- protocol: NCI tumour cell line growth inhibition, 48 h
Calls of active or inactive are those of the source. Cut-off read from the data, not from the text of the source: active = GI50 up to about 1.1 µM and inactive = higher.
measured.property: GI50

The cases that follow already have their GI50 on record.
| compound | system | GI50 |
| --- | --- | --- |
| N#Cc1c(-c2ccccc2)[nH]c(=O)n(C2OC(CO)C(O)C(O)C2O)c1=O (centres undefined) | RPMI-8226 | > 100 µM (inactive) |
| CC1OC(O[C@H]2C3C=CO[C@@H](OC4OC(CO)C(O)C(O)C4O)C3[C@@]3(COC(=O)/C=C/c4ccccc4)O[C@@H]23)C(O)C(O)C1O (some centres undefined) | RPMI-8226 | > 100 µM (inactive) |
| O=C(O)CNc1cc(-c2ccccc2)nc(NCC(=O)O)n1 | RPMI-8226 | > 100 µM (inactive) |

Kindly review the next compound as well.
# get_value(readout= GI50, system= RPMI-8226) for CCc1cccc(C)c1NC(=O)CC(=O)NNC(N)=S
> 100 µM (inactive)

###

- Test system: CCRF-CEM
- protocol: NCI tumour cell line growth inhibition, 48 h
Activity calls are given as the source filed them. No stated cut-off is given here; in the data, active = GI50 up to about 1.1 µM and inactive = higher.
measured.property: GI50

| compound | system | GI50 |
| --- | --- | --- |
| CCCCCCCCCCCCCCCC(=O)Nc1ccn(C2CCC(COP(=O)(O)OCC3OC(n4cc(F)c(=O)[nH]c4=O)CC3OC(C)=O)O2)c(=O)n1 (centres undefined) | CCRF-CEM | 1.47 µM (inactive) |
| O=c1[nH]nc(-c2ccccc2)n1/N=C\c1ccccc1 | CCRF-CEM | > 100 µM (inactive) |
| CC1(C)CC(N2CCN(C3CC(C)(C)NC(C)(C)C3)CC2)CC(C)(C)N1 | CCRF-CEM | > 100 µM (inactive) |
| Oc1ccncc1-c1cnccc1O | CCRF-CEM | > 100 µM (inactive) |
| NS(=O)(=O)c1nnc(NS(=O)(=O)c2ccc(F)cc2)s1 | CCRF-CEM | > 100 µM (inactive) |
| CC1(O)C(=O)OC2CC([C@]3(O)CCC4[C@@H]5C[C@H]6O[C@]67[C@@H](O)C=CC(=O)[C@]7(C)C5CC[C@@]43C)C1(C)C2 (some centres undefined) | CCRF-CEM | 2.03 µM (inactive) |
| Cc1cccc(C(C)(C)C)c1NC(=O)C(=O)C(C(=O)/C=C\c1ccccc1)C1OC(=O)c2ccccc21 (centres undefined) | CCRF-CEM | > 100 µM (inactive) |
| S=C1N=C(Cl)/C(=C\c2ccccc2)N1 | CCRF-CEM | > 31.6 µM (inactive) |
| O=C(O)CC(NC(=O)/C(=C/c1ccccc1)NC(=O)c1ccccc1)C(=O)O (centres undefined) | CCRF-CEM | > 100 µM (inactive) |
| C=C1C[C@@H](O)[C@@H](Br)C(C)(C)[C@]12CCC(C)(Cl)C(Br)C2 (some centres undefined) | CCRF-CEM | 41.6 µM (inactive) |

Which GI50 is reported for this compound? CSc1snc2sc3c(Cl)nnnc3c12
2.12 µM (inactive)

Which GI50 is reported for this compound? Oc1cc(-c2ccccc2)cn2c1nc1ccccc12
3.4 µM (inactive)

Which GI50 is reported for this compound? Cc1ccc(S(=O)(=O)N(/N=C(\N)Oc2ccc(Cl)cc2)C(=N)Oc2ccc(Cl)cc2)cc1
> 100 µM (inactive)

Which GI50 is reported for this compound? O=c1ccc2nc3cc(Br)ccc3sc-2c1
12.9 µM (inactive)

###

- Tested on: OVCAR-5
- protocol: NCI tumour cell line growth inhibition, 48 h
Calls of active or inactive are those of the source. Cut-off read from the data, not from the text of the source: active = GI50 up to about 1.1 µM and inactive = higher.
Known GI50 of a selection of compounds

The cases that follow already have their GI50 on record.
| compound | GI50 |
| --- | --- |
| CSc1snc2sc3c(Cl)nnnc3c12 | 17.2 µM (inactive) |
| CNC(=S)N(C1CCCCC1)C1CCCCC1 | > 100 µM (inactive) |
| Cc1nc([N+](=O)[O-])cn1-c1nc2ccccn2c1[N+](=O)[O-] | > 100 µM (inactive) |

Which GI50 is reported for this compound? CC1(O)C(=O)OC2CC([C@]3(O)CCC4[C@@H]5C[C@H]6O[C@]67[C@@H](O)C=CC(=O)[C@]7(C)C5CC[C@@]43C)C1(C)C2 (stereo partly specified)
23.8 µM (inactive)

Which GI50 is reported for this compound? Cn1c(=O)cc(NNc2ccccc2)[nH]c1=O
85.5 µM (inactive)

Which GI50 is reported for this compound? O=C(O)c1ccccc1NC(=O)C1CCCCC1
> 100 µM (inactive)
